Ref: the supplement of paper PMC10266784

B1: library; numbered along this chain (parent)
chain: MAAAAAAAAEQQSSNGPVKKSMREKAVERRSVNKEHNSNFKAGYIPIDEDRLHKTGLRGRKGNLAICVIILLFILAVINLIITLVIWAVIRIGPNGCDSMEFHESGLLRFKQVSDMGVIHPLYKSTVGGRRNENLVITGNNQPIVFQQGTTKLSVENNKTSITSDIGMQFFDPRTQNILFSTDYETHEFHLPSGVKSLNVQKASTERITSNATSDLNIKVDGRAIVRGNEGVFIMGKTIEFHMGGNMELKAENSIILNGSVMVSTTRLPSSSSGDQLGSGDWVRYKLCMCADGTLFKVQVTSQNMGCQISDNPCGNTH

Variants of: B1
Experiment notes: SGCB cell-surface expression functional score (HA stain, bin4 vs bin1, normalised to synonymous) (log10 ratio); higher = more cell-surface SGCB (functional)
Readout label: SGCB cell-surface expression functional score (log10)

Below are worked cases with known answers.
F233A 0.97
P173A -0.38

Return reported SGCB cell-surface expression functional score (log10) values for all items listed beneath this line.
1. Q169G
2. E185L
3. D183W
4. D311E
5. K54Y
6. W282T

-1.16
-0.11
0.54
-0.14
0.29
-0.1

Return reported SGCB cell-surface expression functional score (log10) values for all items listed beneath this line.
1. P313W
2. S193N
3. V85G
4. N140M
5. N132G
6. S164V
7. I137V
8. T238P

[-0.38, 0.79, 0.11, -0.05, 0.13, -0.34, -0.52, -0.64]

Return reported SGCB cell-surface expression functional score (log10) values for all items listed beneath this line.
1. I234V
2. A9I

[0.49, 0.35]
